Where do these numbers come from? They come from ChEMBL document CHEMBL5126553.

measurement_description: Cytotoxicity against human Rh4 cells transfected with CMV-Luc construct assessed as inhibition of cell growth at 100 uM by luciferase assay
Type: toxicity, cell-based
settings: rh4, 100 µM
observed_property: Activity

Examples with their reported Activity follow.
# compound, Activity
rows = [
    ("CC[C@H](C)C(=O)Nc1nc2c([nH]1)C(C)c1[nH]c(NC(=O)c3ccccc3)nc1CC2 (stereo not given in full)", "Toxic"),
    ("CC[C@H](C)C(=O)Nc1nc2c([nH]1)C(C)c1[nH]c(NC(=O)/C=C/c3ccccc3)nc1CC2 (stereo not given in full)", "Toxic"),
    ("CC(C)C(=O)Nc1nc2c([nH]1)C(C)c1[nH]c(NC(=O)c3ccccc3)nc1CC2 (stereo not given)", "Toxic"),
    ("CC1c2[nH]c(NC(=O)c3ccccc3)nc2CCc2nc(NC(=O)c3ccccc3)[nH]c21", "Toxic"),
]

# context switch: different compound, same Activity
Fill in: Activity of CC(C)=CC(=O)Nc1nc2c([nH]1)C(C)c1[nH]c(NC(=O)c3ccccc3)nc1CC2 (stereo not given) is ___
Toxic

---

# reported IC50; entries follow
tgt: PAX3/FOXO1 (Homo sapiens, UniProt P23760+Q12778)
Sequence (Q12778 whole entry): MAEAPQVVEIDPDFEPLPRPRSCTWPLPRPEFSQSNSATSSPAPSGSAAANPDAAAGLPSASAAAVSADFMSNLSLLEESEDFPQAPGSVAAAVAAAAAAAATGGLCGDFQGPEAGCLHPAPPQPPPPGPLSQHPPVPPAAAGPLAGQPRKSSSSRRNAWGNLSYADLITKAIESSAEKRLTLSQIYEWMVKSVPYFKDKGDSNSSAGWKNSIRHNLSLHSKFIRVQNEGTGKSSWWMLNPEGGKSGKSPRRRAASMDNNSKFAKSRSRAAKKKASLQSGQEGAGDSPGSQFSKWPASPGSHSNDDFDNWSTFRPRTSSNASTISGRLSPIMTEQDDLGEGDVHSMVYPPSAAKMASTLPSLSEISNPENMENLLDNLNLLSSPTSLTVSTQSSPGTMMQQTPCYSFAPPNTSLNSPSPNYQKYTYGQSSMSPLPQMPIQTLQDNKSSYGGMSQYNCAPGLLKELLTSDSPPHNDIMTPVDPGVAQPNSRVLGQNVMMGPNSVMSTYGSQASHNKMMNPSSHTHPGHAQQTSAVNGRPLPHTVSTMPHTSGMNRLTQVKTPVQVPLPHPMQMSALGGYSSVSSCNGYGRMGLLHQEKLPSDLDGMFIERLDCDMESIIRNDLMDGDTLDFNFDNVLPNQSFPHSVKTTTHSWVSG
Sequence (P23760 whole entry): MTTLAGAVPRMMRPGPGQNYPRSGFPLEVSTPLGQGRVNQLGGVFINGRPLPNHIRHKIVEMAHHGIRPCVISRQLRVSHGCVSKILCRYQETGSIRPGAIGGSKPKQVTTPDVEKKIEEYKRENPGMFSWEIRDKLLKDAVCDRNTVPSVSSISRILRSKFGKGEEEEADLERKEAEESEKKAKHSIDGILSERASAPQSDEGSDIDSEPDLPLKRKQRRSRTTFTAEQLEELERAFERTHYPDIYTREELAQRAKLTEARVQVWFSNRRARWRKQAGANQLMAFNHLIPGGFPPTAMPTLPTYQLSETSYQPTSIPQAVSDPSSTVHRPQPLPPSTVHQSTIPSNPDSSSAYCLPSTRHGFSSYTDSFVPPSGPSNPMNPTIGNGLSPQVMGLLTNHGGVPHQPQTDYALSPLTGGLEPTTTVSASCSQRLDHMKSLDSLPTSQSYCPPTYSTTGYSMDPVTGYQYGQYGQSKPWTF
measurement_description: Inhibition of PAX3-FOXO1 driven transcriptional activity in human Rh4 cells transfected with ALK-Luc construct incubated for 24 hrs by luciferase assay
Write down the numeric answer in µM and omit the unit.

Check out these entries, answers already filled in.
# compound, IC50 [µM]
rows = [
    ("CC(C)=CC(=O)Nc1nc2c([nH]1)C(C)c1[nH]c(NC(=O)c3ccccc3)nc1CC2 (stereo not given)", 17),
    ("CC[C@H](C)C(=O)Nc1nc2c([nH]1)C(C)c1[nH]c(NC(=O)c3ccccc3)nc1CC2 (stereo not given in full)", 26),
    ("CC1c2[nH]c(NC(=O)c3ccccc3)nc2CCc2nc(NC(=O)c3ccccc3)[nH]c21", 13),
    ("CC[C@H](C)C(=O)Nc1nc2c([nH]1)C(C)c1[nH]c(NC(=O)/C=C/c3ccccc3)nc1CC2 (stereo not given in full)", 42),
]

Let's switch to this compound now.
What IC50 value was documented for this compound, CC(C)C(=O)Nc1nc2c([nH]1)C(C)c1[nH]c(NC(=O)c3ccccc3)nc1CC2 (stereo not given) ?
67
